Where do these numbers come from? They come from PubChem BioAssay.

Assay: reversal of MRP1-mediated doxorubicin resistance, pilot screen, H69AR cells, doxorubicin co-treatment (AID 601)
Settings: H69AR cells + 2 uM doxorubicin, CellTiter-Glo, 72 h; at 10 µM; hits give high values
Quick reference for differential viability (reversal) among some molecules
Quantity kind: differential viability (reversal) (%)

INSERT INTO results (molecule, endpoint_value) VALUES
  ('Cc1cc(Cl)cc2c1NC(=O)[C@]21[C@@H]2C(=O)N(Cc3ccccc3)C(=O)[C@@H]2[C@@H]2CCCN21', -2.8),
  ('Cc1ccccc1NC(=O)N1C2CCCC1CC(NC(=O)C1CC1)C2 (stereo not given)', 10.3),
  ('CC(C(=O)NC1CCCCCC1)N(c1ccccc1)S(C)(=O)=O (stereo not given)', 6.19),
  ('Cc1ccc(/C=c2\sc3nc(-c4ccccc4Br)nn3c2=O)o1', 6.48),
  ('c1ccc(CCNc2ccc3nncn3n2)cc1', 3.48),
  ('CCCCCc1c(O)nc(SCC(=O)NCC2CCCO2)[nH]c1=O (stereo not given)', 12.2),
  ('CCNc1nc(NCC)n2c(SCc3nc4ccccc4c(=O)[nH]3)nnc2n1', -9.12),
  ('COc1ccc(N=c2scc(-c3ccc(S(=O)(=O)N4CCOCC4)cc3)n2CCCO)cc1', 37.2),
  ('Nn1c(SCC(=O)Nc2ccc(Oc3ccccc3)cc2)nnc1C1CC1', -9.75),
  ('COc1ccc(N(C(=O)c2ccco2)C(C(=O)NC2CCCC2)c2ccc(N(C)C)cc2)cc1OC (stereo not given)', -14.6);

----------
Quick reference for differential viability (reversal) among some compounds
Assay: reversal of MRP1-mediated doxorubicin resistance, pilot screen, H69AR cells, doxorubicin co-treatment (AID 601)
Conditions: H69AR cells + 2 uM doxorubicin, CellTiter-Glo, 72 h; at 10 µM; hits give high values
Quantity kind: differential viability (reversal) (%)

INSERT INTO assay_data (compound, unit_info, endpoint_value) VALUES
  ('COc1ccccc1-c1cc(C(=O)NCCCn2ccnc2)no1', '%', 14.3),
  ('O=C(Nc1ccccc1C(=O)NCC1CCCO1)c1ccco1 (stereo unspecified)', '%', -1.63),
  ('O=C(CSc1nnc2ncccn12)N1CCCCCC1', '%', 15.6),
  ('COc1cc(C(c2sc3nc(C)nn3c2O)N2CC(C)CC(C)C2)cc(OC)c1OC (stereo unspecified)', '%', 0.2),
  ('CN1CC[n+]2cnc3ccccc3c21', '%', 8.2),
  ('COC(=O)Cn1cnc2c(nnn2-c2ccc(C)cc2)c1=O', '%', 7);

----------
Assay: HUVEC growth inhibition – cell-based, human, primary screen (AID 575);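 further: 100% = median of untreated cell wells with 0.1% DMSO on each plate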
Settings: HUVEC proliferation, CellTiter-Glo luminescence, 72 h; at 10 µM; hits give low values
Quick reference for viability among some compounds
Quantity kind: viability (%)

INSERT INTO results (compound, unit_info, endpoint_value) VALUES
  ('CCCCc1nccn1CCn1ccnc1CCCC', '%', 97),
  ('O=c1[nH]c2sc3c(c2c2nncn12)CCCC3', '%', 76.4),
  ('COC(=O)C1=CN(C(C)C)C=C(C(=O)OC)C1c1cc2c(cc1Br)OCO2', '%', 74),
  ('COCCSc1ccccc1C(=O)Nc1cc(C)on1', '%', 95.4),
  ('Cc1cc(C(=O)COC(=O)C2COc3ccccc3O2)c(C)n1CC1CCCO1 (stereo unspecified)', '%', 99.4),
  ('Cc1nn(-c2ccc(F)cc2)c2nc(N)c(C#N)c(-c3cccs3)c12', '%', 85.4),
  ('CC(=O)NC(Cc1ccccc1)C(=O)NC1CCN(C(=O)c2cnccn2)CC1 (stereo unspecified)', '%', 104),
  ('CS(=O)(=O)N1CCCC(C(=O)NCCCN2CCc3ccccc3C2)C1 (stereo unspecified)', '%', 102),
  ('CCCCCCn1c(SCCCC)nc2c1c(=O)[nH]c(=O)n2C', '%', 72.7),
  ('CCn1c(SCc2nc3ccccc3c(=O)[nH]2)nnc1-c1cccnc1', '%', 104),
  ('CCOC(=O)C(C)On1c(SC(C)C(=O)OCC)nc2ccccc2c1=O (stereo unspecified)', '%', 93.4);
